- system-name: rat PXR (Rattus norvegicus)
- Sequence (Q9R1A7 whole entry): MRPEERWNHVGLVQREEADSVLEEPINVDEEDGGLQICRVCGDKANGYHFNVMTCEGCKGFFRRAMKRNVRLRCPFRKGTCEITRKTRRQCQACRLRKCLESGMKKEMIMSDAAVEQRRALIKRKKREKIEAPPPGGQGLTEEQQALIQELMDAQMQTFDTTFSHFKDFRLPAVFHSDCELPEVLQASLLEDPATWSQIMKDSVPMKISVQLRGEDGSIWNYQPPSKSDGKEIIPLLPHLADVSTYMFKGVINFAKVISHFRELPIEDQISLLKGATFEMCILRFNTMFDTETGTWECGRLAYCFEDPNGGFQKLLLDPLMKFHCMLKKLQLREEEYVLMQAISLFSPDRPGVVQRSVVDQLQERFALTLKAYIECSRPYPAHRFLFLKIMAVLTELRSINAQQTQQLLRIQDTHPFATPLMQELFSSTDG
- assay-notes: Rat PXR reporter gene assay in COS-1 cells
- Format: cell-based
- condition-set: concentration showing 20% of the agonistic activity of 1 μM PCN; ±SD
readout-type: Agonistic activity REC20 PXR (µM)
I only need the number, in µM, no unit after it.

CC(C)C(C(=O)OC(C#N)c1cccc(Oc2ccccc2)c1)c1ccc(Cl)cc1 (centres unmarked) [fenvalerate]    0.617
CC1(C)[C@H](C=C(Cl)Cl)[C@H]1C(=O)OCc1cccc(Oc2ccccc2)c1 [trans-permethrin]    0.674
CC(C)=C[C@@H]1[C@@H](C(=O)OCc2coc(Cc3ccccc3)c2)C1(C)C [bioresmethrin]    1.92

Could you now look at the following molecule, please?
Query: Input CC(C)=CC1C(C(=O)OCc2cccc(Oc3ccccc3)c2)C1(C)C (centres unmarked) [phenothrin] , output reported Agonistic activity REC20 PXR.
Result: 3.89

The measured values listed here are drawn from paper PMC6745485.
